Tested on: MCF-7 cells
Experiment: XTT cell viability, MCF-7 cells
Format: cell-based, human
Conditions: Homo sapiens, MCF7, 48 h, Dox alone (no peptide), 48 h, XTT, 5 experiments
Method: Human pancreatic cancer cells BxPC-3, Panc-1, non-transformed human mammary epithelial MCF-10A cells, and human breast cancer cells MCF-7 and MDA-MB-468 were obtained from the American Type Culture Collection (ATCC, Manassas, VA, USA). The cells were then cultured as previously described ([6], [9], [11]). […] Results are presented as mean ± standard deviation (SD). The IC50 values for Dox in cell viability studies were calculated by GraphPad Prism. […]
measured attribute: IC50

* COc1cccc2c1C(=O)c1c(O)c3c(c(O)c1C2=O)C[C@@](O)(C(=O)CO)C[C@@H]3O[C@H]1C[C@H](N)[C@H](O)[C@H](C)O1 [Dox, doxorubicin] | ~4.3 µM
